Molecular target: HIV-1 integrase (Human immunodeficiency virus type 1 group M subtype B)
Construct: Integrase is a 32 kDA viral protein that is biologically active under a multimeric form
Assay: biochemical
Format: binding
Where no end group is shown, it is not given here.
As shown below, each of these sequences has a reported pKd value.
In plain terms, pKd is the concentration in mol/L turned into minus its base-10 logarithm.

CHAIN_SEQUENCE | EXPERIMENTAL_RESULT
GTKWLTEVWPL [Peptide P16] | 6.92
GTKWLTEWIPL [Peptide P24] | 6.46

Here's the next entry for you.
Query string: Consider the sequence shown here: KWLTEWIPLTAEAE [Peptide P26] What is its recorded pKd?
Result string: 6.49

* * *

Biological target: HIV-1 RT (Human immunodeficiency virus type 1 group M subtype B, UniProt P03366)
Construct: The heterodimeric p66/p51 RT was eluted with an imidazole gradient; p66 and p51 derived from p66 by proteolytic cleavage of the C-terminal RNAse H domain; made in house; host or cells: E. coli (M15 for the His-tagged subunits)
Assay: biochemical
PROPERTY_NAME: pKi
In plain terms, pKi is the concentration in mol/L turned into minus its base-10 logarithm.

Query string: Consider the compound shown here: CC[C@H](C)[C@H](NC(=O)[C@@H](NC(=O)[C@H](CCC(=O)O)NC(=O)[C@@H](NC(=O)[C@H](CC(C)C)NC(=O)CNC(=O)[C@H](CCCCN)NC(=O)[C@@H](NC(=O)CN)[C@@H](C)O)[C@@H](C)O)C(C)C)C(=O)N1CCC[C@H]1C(=O)N[C@@H](CC(C)C)C(=O)N[C@H](C(=O)N[C@@H](CCC(=O)O)C(=O)N[C@@H](CCC(=O)O)C(=O)N[C@@H](C)C(=O)N[C@@H](CCC(=O)O)C(=O)O)[C@@H](C)O [Peptide P5] What is its recorded pKi?
Result string: 4.70

* * *

Molecular target: HIV-1 integrase (Human immunodeficiency virus type 1 group M subtype B)
Construct: Integrase is a 32 kDA viral protein that is biologically active under a multimeric form
Assay: biochemical
Assay type: binding
Conditions: read-out: Kd IN binding; Table 10, cell prints μM
Protocol: Fluorescein-labeled peptides (40 nM) were mixed with varying concentrations of integrase in 20 mM Tris pH 7.2, 50 mM NaCl, 10 mM MgCl2, and the r values were recorded. Effect of the different peptides on the integrase (IN) activity, DNA binding and IN/DNA dissociation were evaluated as described in Example III.1 above, using fluorescence polarization and anisotropy measurements. Binding constant of the peptide for IN was determined by steady state fluorescence and anisotropy.
Where no end group is shown, it is not given here.
PROPERTY_NAME: Kd

Query string: Kd of GTKWLTEWIPLTAE [Peptide P27] on HIV-1 integrase (Human immunodeficiency virus type 1 group M subtype B)?
Result string: > 100 µM

* * *

Biological target: HIV-1 RT (Human immunodeficiency virus type 1 group M subtype B, UniProt P03366)
Construct: The heterodimeric p66/p51 RT was eluted with an imidazole gradient; p66 and p51 derived from p66 by proteolytic cleavage of the C-terminal RNAse H domain; made in house; host or cells: E. coli (M15 for the His-tagged subunits)
Assay: biochemical
Conditions: relative to PAW
Where no end group is shown, it is not given here.
As shown below, each of these substances has a reported reduction of efficiency (higher Ki) relative to PAW value.

Example results:
SUBSTANCE | EXPERIMENTAL_RESULT
GTKAWTEVWPL [Peptide P17] | 50 fold
KWLTEWIPLTAEAE [Peptide P26] | 2.5 fold
GTKWLTEWIPLTAEAEC-FITC [PAW-FITC] | 3.8 fold

Here's the next entry for you.
Query string: Consider the substance shown here: GTKWLTEVWPL [Peptide P16] What is its recorded reduction of efficiency (higher Ki) relative to PAW?
Result string: 20 fold
